system: NCI/ADR-RES ovarian; test: NCI-60 one-dose screen, 48 h (100 = growth as untreated, 0 = no growth, -100 = all killed); conditions: 10 µM unless noted
The panel holds about 83,000 compounds, 20% with a hit somewhere; the sample as a whole holds those more often.
// classify: if (growth < 90%) MET else NOT MET

Check out these entries, answers already filled in.
> print(dat)
                                   compound  label.value
1  COc1ccc(-c2nc3sccn3c2/C=C/C(=O)c2cc(F)cc(F)c2)cc1          MET
2  CC(C)(C)n1cc(-c2ccnc(NCCCNS(=O)(=O)c3cccc(F)c3)c2)c(-c2cccc(O)c2)n1          MET
3  CO[C@H]1NC(=O)N(S(=O)(=O)c2ccc(Cl)cc2)[C@@H]1OC      NOT MET
4  COc1ccc2c(c1)NC1=C(C(=O)OC1)C2c1cc(OC)c2c(c1)OCO2 (stereo not given)          MET
5  CC1CN(c2oc(-c3ccccc3)nc2C#N)CC(C)O1 (stereo not given)      NOT MET
6  CC(C)(C)n1cc(-c2ccnc(NCCCNS(=O)(=O)c3ccc(Cl)cc3)c2)c(-c2cccc(O)c2)n1          MET
7  COc1ccc(C2NN=C3c4ccccc4CCC32)cc1 (stereo not given)          MET
8                CC(=O)Nc1scc[n+]1Cc1ccccc1      NOT MET

Continue with the compound presented below.
Please check: growth for CCCCN(CCCC)C(=O)CC , strictly under 90% or not?
NOT MET

###

tested on: CAKI-1 renal; test: NCI-60 one-dose screen, 48 h; conditions: 10 µM unless noted
This is part of a sample that, as a whole, favours compounds with a hit. Of some 83,000 tested, about 20% had one in any assay. The source made the active and inactive calls. The calls were made as follows: active = growth percent below 10; inactive = the rest.
Outcome field: choose from yes (1) (active), no (0) (inactive)

Check out these entries, answers already filled in.
> print(dat)
                                   molecule  label.value
1  CO[C@H]1NC(=O)N(S(=O)(=O)c2ccc(Cl)cc2)[C@@H]1OC       no (0)
2  CCOC(=O)C1C(=O)C=C(c2ccc(OC)cc2)CC1c1sc(N(C)Cc2ccccc2)nc1Cl (centres undefined)       no (0)
3  C=C1CC2(OC1=O)C(=O)N(CCCN1C(=O)C3(CC(=C)C(=O)O3)c3ccccc31)c1ccccc12 (centres undefined)      yes (1)
4  Nc1cccc(-c2nc3sccn3c2-c2ccnc(NCCCNS(=O)(=O)c3cccc4ccccc34)n2)c1       no (0)
5  COc1cc(-c2nn(-c3cccc(NC(=O)Nc4cc(C(F)(F)F)cc(C(F)(F)F)c4)c3)cc2-c2ccncc2)ccc1Cl       no (0)
6  N=C(N)c1ccc(-c2ccc(-c3ccc(-c4cccs4)s3)s2)cc1       no (0)

Entry N/C(=N\S(=O)(=O)c1ccccc1)Nc1nc2ccccc2s1 : call = ?
no (0)

Entry COc1cc(/C=C/C(=O)N2CCN(C(=O)/C=C/c3cc(OC)c(OC)c(OC)c3)CC2)cc(OC)c1OC : call = ?
no (0)

Entry CCCCCc1cc[n+](CC(=O)c2ccc([N+](=O)[O-])cc2)cc1 : call = ?
no (0)

Entry COC(=O)c1cccc2c1N(C)c1c(cccc1C(=O)OC)CC2 : call = ?
no (0)

Entry O=C1/C(=C/c2ccc([N+](=O)[O-])cc2)CN(C(=O)CCN2CCC(=NO)CC2)C/C1=C\c1ccc([N+](=O)[O-])cc1 : call = ?
yes (1)

Where do the numbers come from? From PubChem BioAssay (NCI).
